# target-system: recombinant his6-tagged haemagglutinin HA1, Abcam ab53875
# test-protocol: ELISA on recombinant haemagglutinin, detection with rabbit anti-NANOBODY serum
metric-name: ELISA titer (NANOBODY concentration giving extinction 1)

(Q) I have this binder here, IV157 (VHH) VHH: QVQLQQSGGGLVQPGGSLRLSCAASRSDISFNPMGWYRQAPGKQRELVATISNGGTTNYADSVKGRFTISQDNAKTTVYLQMNSLKPEDTAVYYCNGRGPRYATTGWYTDDYWGQGTQVTVSS , and I need its recorded ELISA titer (NANOBODY concentration giving extinction 1).
(A) 9.9 ng/mL

(Q) I have this binder here, IV155 (VHH) VHH: QVQLQESGGGLVQAGGSLRLSCAASGRSLSRYAMGWFRQAPGKEREFVATKTSGGVTYYGASVKGRFTISRDNAKNMVYLQMNSLNPEDTAIYYCAAGTDAIFKPWMLPDYWGQGTQVTVSG , and I need its recorded ELISA titer (NANOBODY concentration giving extinction 1).
(A) > 10000 ng/mL

(Q) I have this binder here, IV146 (VHH) VHH: QVQLQQSGGGLVQAGGSLRLSCAASGSSFSINAMGWYRQAPGKQRELVAAISSGGSANYADSVKGRFTISRDNAKNTVYLQMNSLKPEDTAVYYCNAGSRFNPFGSAYDYWGQGTQVTVSS , and I need its recorded ELISA titer (NANOBODY concentration giving extinction 1).
(A) 62.9 ng/mL

// below: ELISA titer (NANOBODY concentration giving extinction 1) requested for another binder
(Q) I have this binder here, IV144 (VHH) VHH: QVQLQQSGGGLVQAGGSLRLSCAASGNIISFNPMGWHRQAPGKQRELVASITSGGSISYVDSVKGRFTISRDSAKNTIYLQMNSLKPEDTAVYFCAGEGPRRRGSTWYTDTYWGQGTQVTVSS , and I need its recorded ELISA titer (NANOBODY concentration giving extinction 1).
(A) 34.8 ng/mL

Source of measurements: patent US20200123233A1
